Biological target: SARS-CoV-2 3CLpro (Severe acute respiratory syndrome coronavirus 2, UniProt P0DTD1)
Assay: biochemical
Assay type: biochemical
Details: LOPAC1280 primary screen with protease, 5 µM compound, replicate 2
Label key: 1 means Replicate_2 (LOPAC_screen_w_protease) under 2; -1 means Replicate_2 (LOPAC_screen_w_protease) of 2 or more.

INSERT INTO measurements (compound, assigned_label) VALUES
  ('CCc1c(C(=O)OC)ncc2[nH]c3cc(OC)c(OC)cc3c12', 1),
  ('NCCCP(=O)(O)O', 1),
  ('Br.CCCN(CCC)C1CCc2ccc(O)cc2C1 (racemic) [(±)-7-Hydroxy-DPAT hydrobromide]', 1),
  ('Br.CCCN(CCC)C1CCc2cccc(O)c2C1 (racemic) [(±)-8-Hydroxy-DPAT hydrobromide]', 1);

-- ask Does this compound meet the criterion Replicate_2 (LOPAC_screen_w_protease) < 2? CCCCCCCCCCCCCCCCCCOCC(COP(=O)([O-])OCC[N+](C)(C)C)OC (stereo not drawn)
-- reply 1

-- ask Does this compound meet the criterion Replicate_2 (LOPAC_screen_w_protease) < 2? CC(C)NCC(O)COc1cccc2[nH]ccc12 (stereo not drawn) [S(-)-Pindolol]
-- reply -1

-- ask Does this compound meet the criterion Replicate_2 (LOPAC_screen_w_protease) < 2? OC[C@H]1NC[C@@H](O)[C@@H]1O
-- reply 1

-- ask Does this compound meet the criterion Replicate_2 (LOPAC_screen_w_protease) < 2? Nc1nc(Cl)nc2c1ncn2[C@@H]1O[C@H](COP(=O)(O)OP(=O)(O)OP(=O)(O)O)C(O)C1O (stereo in doubt)
-- reply 1

-- ask Does this compound meet the criterion Replicate_2 (LOPAC_screen_w_protease) < 2? O=C(Nc1ccccc1)c1cc([N+](=O)[O-])ccc1Cl
-- reply 1

-- ask Does this compound meet the criterion Replicate_2 (LOPAC_screen_w_protease) < 2? OCc1ccc(-c2nn(Cc3ccccc3)c3ccccc23)o1
-- reply -1

-- ask Does this compound meet the criterion Replicate_2 (LOPAC_screen_w_protease) < 2? NCCc1c[nH]c2ccc(C(N)=O)cc12.O=C(O)/C=C\C(=O)O [5-Carboxamidotryptamine maleate]
-- reply 1

-- ask Does this compound meet the criterion Replicate_2 (LOPAC_screen_w_protease) < 2? CCCCCCCCCCCCCCCCCCNC(=O)OCC(COP(=O)([O-])OCC[n+]1ccsc1)OC (stereo not drawn)
-- reply -1

-- ask Does this compound meet the criterion Replicate_2 (LOPAC_screen_w_protease) < 2? O=C1Nc2ccccc2/C1=C1/Nc2ccccc2/C1=N\O
-- reply 1

-- ask Does this compound meet the criterion Replicate_2 (LOPAC_screen_w_protease) < 2? CC[N+](C)(CC)CC(=O)Nc1c(C)cccc1C.[Cl-] [Lidocaine N-methyl hydrochloride]
-- reply 1

-- ask Does this compound meet the criterion Replicate_2 (LOPAC_screen_w_protease) < 2? Br.CO[C@H]1CC=C2CCN3CCC4=C(CC(=O)OC4)[C@]23C1 [Dihydro-beta-erythroidine hydrobromide]
-- reply -1

-- ask Does this compound meet the criterion Replicate_2 (LOPAC_screen_w_protease) < 2? O=C[C@H](Cl)[C@@H](O)[C@H](O)[C@H](O)CO
-- reply -1

-- ask Does this compound meet the criterion Replicate_2 (LOPAC_screen_w_protease) < 2? N#C/C(=C\c1ccc(O)c(O)c1)C(=O)c1ccc(O)c(O)c1
-- reply 1

-- ask Does this compound meet the criterion Replicate_2 (LOPAC_screen_w_protease) < 2? O=C1C=CC(=O)C=C1
-- reply -1
